// provenance: patent US20160039895A1

target: T1, human VEGFR2 on cells (PAE/KDR cells, HUVEC) (human, UniProt P35968 20-1356); assay: flow cytometry titration on PAE/KDR cells, anti-FLAG detection
T1 construct: whole, on cells
T1 sequence (P35968 20-1356): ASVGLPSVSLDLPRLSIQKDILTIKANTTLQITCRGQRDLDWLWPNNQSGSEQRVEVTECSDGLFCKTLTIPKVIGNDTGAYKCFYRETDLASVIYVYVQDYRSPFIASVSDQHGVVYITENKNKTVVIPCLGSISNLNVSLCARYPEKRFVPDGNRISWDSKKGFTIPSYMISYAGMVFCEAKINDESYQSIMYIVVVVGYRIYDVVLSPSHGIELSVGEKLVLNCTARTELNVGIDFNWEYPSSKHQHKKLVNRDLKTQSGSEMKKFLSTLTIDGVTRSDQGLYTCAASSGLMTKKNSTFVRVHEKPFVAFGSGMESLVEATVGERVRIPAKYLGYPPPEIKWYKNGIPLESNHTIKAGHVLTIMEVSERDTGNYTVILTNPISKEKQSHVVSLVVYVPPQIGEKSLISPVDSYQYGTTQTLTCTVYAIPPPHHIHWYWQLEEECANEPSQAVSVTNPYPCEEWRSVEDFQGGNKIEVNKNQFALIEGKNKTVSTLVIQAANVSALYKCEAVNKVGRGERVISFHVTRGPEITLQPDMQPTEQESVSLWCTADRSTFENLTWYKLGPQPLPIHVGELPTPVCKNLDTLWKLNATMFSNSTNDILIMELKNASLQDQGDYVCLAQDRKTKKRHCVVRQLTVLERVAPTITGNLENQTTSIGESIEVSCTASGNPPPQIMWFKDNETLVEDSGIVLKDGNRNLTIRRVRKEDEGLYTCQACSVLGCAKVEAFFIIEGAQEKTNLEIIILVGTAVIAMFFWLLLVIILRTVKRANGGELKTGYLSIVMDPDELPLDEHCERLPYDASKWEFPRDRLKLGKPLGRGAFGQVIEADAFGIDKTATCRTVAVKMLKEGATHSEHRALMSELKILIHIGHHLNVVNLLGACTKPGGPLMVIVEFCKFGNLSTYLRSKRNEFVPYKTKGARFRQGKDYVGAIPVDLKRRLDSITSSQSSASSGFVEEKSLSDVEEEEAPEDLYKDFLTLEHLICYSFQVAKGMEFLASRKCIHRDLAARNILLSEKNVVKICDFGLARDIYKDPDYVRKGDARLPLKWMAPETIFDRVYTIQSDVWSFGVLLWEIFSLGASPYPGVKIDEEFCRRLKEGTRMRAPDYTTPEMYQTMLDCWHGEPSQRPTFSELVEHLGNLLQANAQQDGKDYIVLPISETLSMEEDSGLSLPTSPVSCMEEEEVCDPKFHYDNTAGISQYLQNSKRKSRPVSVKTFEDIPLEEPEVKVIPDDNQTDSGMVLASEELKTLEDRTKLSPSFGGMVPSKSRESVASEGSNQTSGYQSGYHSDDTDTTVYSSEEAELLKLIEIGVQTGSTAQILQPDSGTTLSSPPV
// values below are reported Kd
readout_label: Kd (nM)

binder: scVEGFmut (designed binder, scVEGF with chain 1 F17A, E64A and chain 2 I46A, I83A (VEGF121 numbering); Soluble protein from P. pastoris with C-terminal hexahistidine tag, with or without N-terminal FLAG tag) YVEVVKAMDVYQRSYCHPIETLVDIFQEYPDEIEYIFKPSCVPLMRCGGCCNDAGLECVPTEESNITMQIMRIKPHQGQHIGEMSFLQHNKCECRPKKDGSTSGSGKSSEGKGEVVKFMDVYQRSYCHPIETLVDIFQEYPDEIEYAFKPSCVPLMRCGGCCNDEGLECVPTEESNITMQIMRAKPHQGQHIGEMSFLQHNKCECRPKKDTR
unit_tag: nM
observed_result: 17
--
binder: scVEGF-mM (designed binder, Soluble protein with C-terminal hexahistidine tag, with or without N-terminal FLAG tag (tags not included in the parts); also called scVEGFmut-M) EVVKAMDVYRRSYCHPVETSVDILQEYPDEIEYIFKPSCVPLMRCGGCCNDAGLECVPTEESNTTMQIMRIKPYRGQHIGEMSFLQHNKCECRPKKDGSTSGSGKSSEGKGEVVKFMDVYQRSYCHPIETLVDIFQEYPDEIEYAFKPSCVSLMRCGGCCNNEGLECVPTEESNITVQIMGAKPHQGQHIGEMSFLQHNKCECRPKKD
unit_tag: nM
observed_result: 34
--
binder: scVEGF-mJ (designed binder, Soluble protein with C-terminal hexahistidine tag, with or without N-terminal FLAG tag (tags not included in the parts); also called scVEGFmut-J) EIVKARDVYQRSYCHPIETLVDILQEYPDEIEYIFKPSCVPLMRCGGCCNDAGLECVPTEESNITMQIMRIKPYQGHHIGEMSFLQHNKCECRPKKDGSTSGSGKSSEGKGEVVKFMDVYQRSYCHPIETLVDIFQEYPDEIEYAFKPSCVPLMRCGGCCNNEGLECVPTEESNITMQIMRAKPHQGQHTGEMSFLQHNKCECRPKKD
unit_tag: nM
observed_result: 6.9
--
binder: scVEGF-mE (designed binder, Soluble protein with C-terminal hexahistidine tag, with or without N-terminal FLAG tag (tags not included in the parts); also called scVEGFmut-E) EVVKAMDVYQRSYCHPIETLVDILQEYPDEIGYIFKPSCVPLMRCGGCCNGAGLECVPTEESNITMQIMRIKPHRGQHIGEMSFLQHNKCECRPKKDGSTSGSGKSSEGKGEVVRFMDVYQRSYCHPIETLVDIFQEYPNEIEYAFKPSCVPLMRCGGCCNNEGLECVPTEESNITMQIMRAKPHQGQHIGEMSFLQHNKCECRPKKD
unit_tag: nM
observed_result: 6.6
--
binder: scVEGFwt (ligand, also called wild-type scVEGF; single-chain VEGF) YVEVVKFMDVYQRSYCHPIETLVDIFQEYPDEIEYIFKPSCVPLMRCGGCCNDEGLECVPTEESNITMQIMRIKPHQGQHIGEMSFLQHNKCECRPKKDGSTSGSGKSSEGKGEVVKFMDVYQRSYCHPIETLVDIFQEYPDEIEYIFKPSCVPLMRCGGCCNDEGLECVPTEESNITMQIMRIKPHQGQHIGEMSFLQHNKCECRPKKDTR
unit_tag: nM
observed_result: 9.8
--
binder: scVEGF-mA (designed binder, Soluble protein from P. pastoris with C-terminal hexahistidine tag, with or without N-terminal FLAG tag (tags not included in the parts); also called scVEGFmut-A) EVAKAMDVYQKSYCHPIETLVDILQEYPDEIGYIFKPSCVPLMRCGGCCNDAGLECVPTEESNITMQIMRIKPYQGQHIGEMSFLQHNKCECRPKKDGSTSGSGKSSEGKGEVVKFMDVYQRSYCHPIETLVDIFQEYPDKIEYAFKPSCVPLMRCGGCCNNEGLECVPTEESNITMQITRAKPHQGQHIGEMSFLQHNKCECRPKKD
unit_tag: nM
observed_result: 5.7
